// data source = ChEMBL document CHEMBL1201862

tested on: NCI-H226; experiment: NCI tumour cell line growth inhibition, 48 h
Activity calls are given as the source filed them. Rule as the data show it: active = GI50 up to about 1.1 µM and inactive = higher.
I'd be grateful if you could share measured GI50 for these entries.

Output measured GI50 for this item: O=C(Nc1nnc(-c2c(Cl)c(Cl)c(Cl)c(Cl)c2-c2nc3cc(C(=O)c4ccccc4)ccc3[nH]2)o1)c1ccc(Cl)cc1
26.4 µM (inactive)

Output measured GI50 for this item: COC(=O)/C(=N\N)C(C(=O)C(=O)Nc1cc(Cl)ccc1Cl)c1nc2ccc([N+](=O)[O-])cc2nc1O (stereo not given)
> 100 µM (inactive)

Output measured GI50 for this item: CC#CC#C/C=C1\C=CC2(OC=CC2O)O1 (stereo not given)
> 15.8 µM (inactive)

Output measured GI50 for this item: CC(=O)NC1=C(NCCCl)C(=O)c2ccccc2C1=O
49.1 µM (inactive)

Output measured GI50 for this item: COC(=O)/C=C(/OC)[C@H](C)[C@H](/C=C/c1csc(-c2csc(C(C)C)n2)n1)OC
4.19 µM (inactive)

Output measured GI50 for this item: O=C(Cn1ccc(=O)[nH]c1=O)Nc1ccc(C(=O)O)c(O)c1
> 100 µM (inactive)

Output measured GI50 for this item: c1ccc(CSCCc2ccncc2)cc1
> 100 µM (inactive)

Output measured GI50 for this item: Cc1ccc(C2CC(c3ccco3)=NN2c2ccccc2)o1 (stereo not given)
> 100 µM (inactive)

Output measured GI50 for this item: O=C1OC(c2ccccc2)=N/C1=C/NC(CO)C(=O)O (stereo not given)
> 100 µM (inactive)

Output measured GI50 for this item: Cc1ccc(NCC(=O)N2CC(=O)Nc3ccccc32)cc1
> 100 µM (inactive)

* * *

system: MOLT-4; test: NCI tumour cell line growth inhibition, 48 h
The source made the active and inactive calls. Cut-off read from the data, not from the text of the source: active = GI50 up to about 1.1 µM and inactive = higher.
Bench note: report the call from true for active, false for inactive

I'd appreciate the recorded outcome for Cc1cc(C)c(S(=O)(=O)ONC(=O)OC(C)(C)C)c(C)c1 from this test.
false

I'd appreciate the recorded outcome for CN(C)/C=N\c1cccc2c1NSN2 from this test.
false

I'd appreciate the recorded outcome for O=S(=O)(CCCCl)SCCCCl from this test.
false

I'd appreciate the recorded outcome for N#CCCN(CCC#N)c1ccc(/C=C2\N=C(CN3C(=O)c4ccccc4C3=O)OC2=O)cc1 from this test.
false

I'd appreciate the recorded outcome for Cc1cc2c(cc1Cl)SC(NNC1=NCCN1)=NS2(=O)=O from this test.
false

I'd appreciate the recorded outcome for COc1ccc(C[C@H](N)C(=O)NC2C(CO)OC(n3cnc4c(N(C)C)ncnc43)C2O)cc1 (stereo partly specified) from this test.
true

I'd appreciate the recorded outcome for C/C(=C1/N=C(c2ccccc2)OC1=O)c1cccs1 from this test.
false

I'd appreciate the recorded outcome for COc1cc2cc(C(=O)N3CC(COS(C)(=O)=O)c4ccc(O)cc43)[nH]c2c(OC)c1OC (stereo unspecified) from this test.
true

I'd appreciate the recorded outcome for NCCCn1c(Cl)nc2ccccc21 from this test.
false

I'd appreciate the recorded outcome for CN1CCC2(CC1)/C(=N/C1CCCCC1)NC(=O)N2c1ccccc1 from this test.
false

I'd appreciate the recorded outcome for CC1(C)OC2COC(c3n[nH]c4c(=O)[nH]c(=O)[nH]c34)C2O1 (stereo unspecified) from this test.
false

* * *

I'd be grateful if you could share measured GI50 for these entries.
tested on: HOP-62; experiment: NCI tumour cell line growth inhibition, 48 h
Calls of active or inactive are those of the source. Rule as the data show it: active = GI50 up to about 1.1 µM and inactive = higher. Where a SMILES comes first, the peptide text is derived from it. The star is where a group is joined. Boc = CC(C)(C)OC(=O)*; Bn = c1ccc(C*)cc1

Output measured GI50 for this item: CN(C)C(=O)C(NCCO)c1ccccc1 (centres undefined)
> 100 µM (inactive)

Output measured GI50 for this item: COC(C/C(=C/CO[Si](C(C)C)(C(C)C)C(C)C)C(=O)N(C(=O)OC(C)(C)C)c1ccccc1I)OC
57.7 µM (inactive)

Output measured GI50 for this item: C=C1CC2C[C@H](OS(=O)(=O)c3ccc(C)cc3)C(C1)N2C (some centres undefined)
> 100 µM (inactive)

Output measured GI50 for this item: COC(=O)C1CC(c2ccc(Cl)cc2)=NO1 (centres undefined)
> 100 µM (inactive)

Output measured GI50 for this item: COC(=O)C(CC(C)C)NC(=O)CNC(=O)C(Cc1ccc(OCc2ccccc2)cc1)NC(=O)C(COCc1ccccc1)NC(=O)OC(C)(C)C (centres undefined) (Boc-S(Bn)Y(Bn)GL-OMe; configuration not given here)
> 100 µM (inactive)

Output measured GI50 for this item: O=C(N/C(=C\c1ccc(/C=C(\NC(=O)c2ccccc2)c2nc3ccccc3s2)cc1)c1nc2ccccc2s1)c1ccccc1
18.4 µM (inactive)

Output measured GI50 for this item: O=C(Nc1nc(C23CC4CC(CC(C4)C2)C3)cs1)c1cc2c(ccc3ccccc32)oc1=O
> 100 µM (inactive)

Output measured GI50 for this item: CCC(=O)N(O)C(C)(C)C
> 100 µM (inactive)

Output measured GI50 for this item: CC(=O)c1ccc2c(c1)oc(=O)n2CCN(C)C
> 100 µM (inactive)
